target: Melanin-concentrating hormone receptor 1 (Homo sapiens, UniProt Q99705); assay: Inhibitory concentration against human MCH-R1-stimulated [Ca2+] influx
Sequence (Q99705 whole entry): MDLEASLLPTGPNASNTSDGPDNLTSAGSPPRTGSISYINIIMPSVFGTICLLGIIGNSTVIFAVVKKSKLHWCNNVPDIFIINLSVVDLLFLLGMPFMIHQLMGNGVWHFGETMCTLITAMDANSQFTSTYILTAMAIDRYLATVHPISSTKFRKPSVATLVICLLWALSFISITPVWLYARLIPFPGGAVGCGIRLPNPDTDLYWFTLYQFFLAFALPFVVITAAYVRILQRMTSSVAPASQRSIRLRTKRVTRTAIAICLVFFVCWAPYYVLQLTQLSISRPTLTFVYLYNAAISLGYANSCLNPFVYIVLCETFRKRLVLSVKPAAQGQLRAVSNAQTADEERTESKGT
Assay readout: IC50 (nM)
Report the figure in nM without appending any unit label.

Per the records, this molecule ( CNC1CCN(c2ccc(NC(=O)c3ccc(-c4ccccc4)cc3)cc2)C1 (stereo unspecified) ) has IC50 equal to 166

====

molecular target: Melanin-concentrating hormone receptor 1 (Homo sapiens)
Hi there, I'd appreciate the recorded pKi for every entry that follows.
Recall that pKi is obtained by taking minus log10 of the concentration measured in molar.

The measured pKi that CN(C)C1CCN(c2ccc(NC(=O)CCC(=O)c3ccc(Cl)cc3)cc2)C1 (stereo unspecified) showed for Melanin-concentrating hormone receptor 1 (Homo sapiens) is 7.89

Record CN(C)C1CCN(c2ccc(NC(=O)NCCCc3ccccc3)cc2)C1 (stereo unspecified) has Melanin-concentrating hormone receptor 1 (Homo sapiens) pKi equal to 7.37

Form field pKi for item CN(C)C1CCN(c2ccc(NC(=O)c3ccc(-c4cccs4)cc3)cc2)C1 (stereo unspecified) on Melanin-concentrating hormone receptor 1 (Homo sapiens): 7.47

The observed pKi for CN(C)C1CCN(c2ccc(NC(=O)Cc3ccc(-c4ccccc4)cc3)cc2)C1 (stereo unspecified) when tested with Melanin-concentrating hormone receptor 1 (Homo sapiens) stands at 5.37

Tested system Melanin-concentrating hormone receptor 1 (Homo sapiens); pKi recorded for CN(C)C1CCN(c2ccc(NC(=O)c3ccc(-c4ccccc4)nc3)cc2)C1 (stereo unspecified) was 6.96

CN(C)C1CCN(c2ccc(NC(=O)c3ccc(-c4ccccc4)cc3)cc2)C1 (stereo unspecified) tested on Melanin-concentrating hormone receptor 1 (Homo sapiens) gave pKi: 8.28

// pKi (Melanin-concentrating hormone receptor 1 (Homo sapiens)) for CN(C)C1CCN(c2ccc(NC(=O)c3ccc(N4CCCCC4)nc3)cc2)C1 (stereo unspecified) = 5.62

Bench note, Melanin-concentrating hormone receptor 1 (Homo sapiens): entry CN(C)C1CCN(c2ccc(NC(=O)C3CCC(c4ccc(Cl)cc4)CC3)cc2)C1 (stereo unspecified) , its pKi = 7.92

The compound CCN(C)C1CCN(c2ccc(NC(=O)c3ccc(-c4ccccc4)cc3)cc2)C1 (stereo unspecified) , when measured on Melanin-concentrating hormone receptor 1 (Homo sapiens), yielded pKi of 8.23
